molecular target: Telomerase reverse transcriptase (Homo sapiens) (UniProt O14746); experiment: Inhibition of telomerase activity in human HeLa cell lysate at 10 uM in presence of [32P]-labeled template primer by TRAP assay; type: subcellular
Sequence (O14746 whole entry): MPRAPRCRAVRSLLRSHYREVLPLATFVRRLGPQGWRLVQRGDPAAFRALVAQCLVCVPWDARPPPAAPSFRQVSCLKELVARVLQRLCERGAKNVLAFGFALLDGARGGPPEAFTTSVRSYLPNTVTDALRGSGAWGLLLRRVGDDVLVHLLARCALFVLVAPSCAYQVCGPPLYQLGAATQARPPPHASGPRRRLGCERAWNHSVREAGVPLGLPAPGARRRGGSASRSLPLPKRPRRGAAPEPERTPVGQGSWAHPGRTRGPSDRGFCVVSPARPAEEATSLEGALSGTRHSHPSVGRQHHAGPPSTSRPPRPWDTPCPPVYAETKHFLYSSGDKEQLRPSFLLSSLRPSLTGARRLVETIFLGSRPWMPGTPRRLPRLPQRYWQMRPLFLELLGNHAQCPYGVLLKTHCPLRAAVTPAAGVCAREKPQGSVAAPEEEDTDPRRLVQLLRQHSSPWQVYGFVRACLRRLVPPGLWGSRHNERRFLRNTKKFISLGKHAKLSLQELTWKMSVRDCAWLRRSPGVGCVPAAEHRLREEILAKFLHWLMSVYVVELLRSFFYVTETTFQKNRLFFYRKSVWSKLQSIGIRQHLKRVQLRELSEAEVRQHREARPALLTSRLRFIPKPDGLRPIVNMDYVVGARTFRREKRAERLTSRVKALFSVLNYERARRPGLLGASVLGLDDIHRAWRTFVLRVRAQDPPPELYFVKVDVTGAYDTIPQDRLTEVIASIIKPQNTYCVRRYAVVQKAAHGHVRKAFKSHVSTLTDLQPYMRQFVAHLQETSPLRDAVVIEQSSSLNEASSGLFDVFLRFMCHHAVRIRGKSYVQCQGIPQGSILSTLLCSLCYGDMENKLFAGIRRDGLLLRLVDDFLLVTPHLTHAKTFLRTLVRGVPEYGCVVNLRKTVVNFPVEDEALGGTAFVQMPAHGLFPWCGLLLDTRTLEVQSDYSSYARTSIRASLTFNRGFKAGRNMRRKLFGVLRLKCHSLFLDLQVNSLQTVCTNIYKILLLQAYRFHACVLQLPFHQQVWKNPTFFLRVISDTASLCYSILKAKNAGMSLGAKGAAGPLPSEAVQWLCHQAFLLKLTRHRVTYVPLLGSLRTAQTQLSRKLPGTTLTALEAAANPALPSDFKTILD
Active and inactive are the calls of the source. The rule behind the calls is not given here.
ENDPOINT: inhibition

In [3]: df
Out[3]:
                                chem_smiles    endpoint  result
0  C[n+]1c(/C=C2\C=CN(CC(=O)NCCCNCCCN)c3ccccc32)sc2ccccc21  inhibition  Active
1  C[n+]1c(/C=C2\C=CN(CC(=O)NCCCNCCCCNCCCN)c3ccccc32)sc2ccccc21  inhibition    100%
2  CN(C)c1ccc(Nc2c3ccc(NC(=O)CCN4CCCC4)cc3nc3cc(NC(=O)CCN4CCCC4)ccc23)cc1  inhibition  Active
3  C[n+]1c(/C=C2\C=CN(CC(=O)NCCNCCNCCN)c3ccccc32)sc2ccccc21  inhibition  Active

----------
Ratio values for the compounds below.
assay: Ratio of Kd for human G-quadruplex G1 DNA to Kd for 17 mer duplex D1 DNA (unknown origin) by flourimetric titration analysis
ENDPOINT: Ratio

In [3]: df
Out[3]:
                                chem_smiles  endpoint  result
0  CN1/C(=C/c2cc[n+](C)c3ccccc23)Sc2ccccc21     Ratio    2.18
1  C[n+]1c(/C=C2\C=CN(CC(=O)NCCN3CCCCC3)c3ccccc32)sc2ccccc21     Ratio    4.18
2  C[n+]1c(/C=C2\C=CN(CC(=O)NCCCNCCCN)c3ccccc32)sc2ccccc21     Ratio     2.8
3  C[n+]1c(/C=C2\C=CN(CC(=O)NCCCNCCCCNCCCN)c3ccccc32)sc2ccccc21     Ratio    2.33
4  C[n+]1c(/C=C2\C=CN(CC(=O)NCCOCCN3CCCC3)c3ccccc32)sc2ccccc21     Ratio     2.7
5  C[n+]1c(/C=C2\C=CN(CC(=O)NCCOCCN3CCCCC3)c3ccccc32)sc2ccccc21     Ratio    3.57
6  C[n+]1c(/C=C2\C=CN(CC(=O)NCCN3CCCC3)c3ccccc32)sc2ccccc21     Ratio    0.79

----------
Tm values for the compounds below.
tested on: Quadruplex DNA; experiment: Binding affinity to G-quadruplex G1 DNA (unknown origin) assessed as melting temperature at compound to DNA ratio of 4:1 in presence of 100 mM K+ by circular dichroism thermal denaturation analysis (Rvb= 52.6 degC); format: nucleic-acid assay
ENDPOINT: Tm (°C)

>>> print(df.to_string())
                                 chem_smiles  endpoint  result
 0  C[n+]1c(/C=C2\C=CN(CC(=O)NCCOCCOCCOCCN)c3ccccc32)sc2ccccc21        Tm    59.4
 1  C[n+]1c(/C=C2\C=CN(CC(=O)NCCN)c3ccccc32)sc2ccccc21        Tm    59.2
 2  C[n+]1c(/C=C2\C=CN(CC(=O)NCCN3CCCC3)c3ccccc32)sc2ccccc21        Tm    69.4
 3  C[n+]1c(/C=C2\C=CN(CC(=O)O)c3ccccc32)sc2ccccc21        Tm      54
 4  C[n+]1c(/C=C2\C=CN(CC(=O)NCCN3CCCCC3)c3ccccc32)sc2ccccc21        Tm      64
 5  C[n+]1c(/C=C2\C=CN(CC(=O)NCCOCCN3CCCC3)c3ccccc32)sc2ccccc21        Tm    59.7
 6  C[n+]1c(/C=C2\C=CN(CC(=O)NCCCNCCCCNCCCN)c3ccccc32)sc2ccccc21        Tm      71
 7  CN1/C(=C/c2cc[n+](C)c3ccccc23)Sc2ccccc21        Tm    63.4
 8  C[n+]1c(/C=C2\C=CN(CC(=O)NCCOCCN3CCCCC3)c3ccccc32)sc2ccccc21        Tm    64.9
 9  C[n+]1c(/C=C2\C=CN(CC(=O)NCCCNCCCN)c3ccccc32)sc2ccccc21        Tm    60.5
10  C[n+]1c(/C=C2\C=CN(CC(=O)NCCOCCN)c3ccccc32)sc2ccccc21        Tm    58.7
11  C[n+]1c(/C=C2\C=CN(CC(=O)NCCCN)c3ccccc32)sc2ccccc21        Tm    60.2
12  C[n+]1c(/C=C2\C=CN(CC(=O)NCCCCCCN)c3ccccc32)sc2ccccc21        Tm    62.3
13  C[n+]1c(/C=C2\C=CN(CC(=O)NCCNCCNCCN)c3ccccc32)sc2ccccc21        Tm    62.4
